Parameter: GI50. Scope: all listed entries.
Tested on: SNB-75 CNS

CCCCCCCCCCN(CCCCCCCCCC)CC(=O)c1ccc2cc(Br)c3ccccc3c2c1 tested on SNB-75 CNS gave GI50: 2.1 µM

Cn1ncc2c(N)nc(N3CCCCC3)nc21 tested on SNB-75 CNS gave GI50: 29.7 µM

N=C(N=C(N)N)N1CCN(c2ccncc2)CC1 tested on SNB-75 CNS gave GI50: > 1000 µM

---
CO/C1=C\C(C)=C\C(C)C(O)C(C)C/C(C)=C/C=C/C(OC)C(C(C)C(O)C(C)C2(O)CC(O)C(C)C(C(C)C)O2)OC1=O (stereo not given) tested on SNB-75 CNS gave GI50: 0.0396 µM

COc1ccc(/C=C/c2nc(NCCCN(C)C)c3ccccc3n2)cc1 tested on SNB-75 CNS gave GI50: 1.34 µM

N#Cc1cnc2cc(OC[C@@H](O)CO)c(NC(=O)CC3CSSC3)cc2c1Nc1ccc(OCc2cccc(F)c2)c(Cl)c1 tested on SNB-75 CNS gave GI50: 0.738 µM

---

System: KM12 colon
Assay: NCI tumour cell line growth inhibition, 48 h
Parameter: TGI. Scope: all listed entries.
// return numeric value only (unit: µM, not printed)

response.value for Clc1ccc(Cc2nc3ccc(CCN4CCN(c5ccccc5)CC4)cc3[nH]2)cc1 (field: TGI) = 24.1

---
response.value for CC(C)c1ccc(C(=O)Nc2sc3c(c2C#N)CCC(=O)C3)cc1 (field: TGI) = 7.83

---

System: NCI/ADR-RES ovarian
Test: NCI tumour cell line growth inhibition, 48 h
value kind: TGI

# count of solved cases: 10
response.value for COc1cc(C2SCC(=O)N2c2ccc(-n3c(-c4ccccc4)nc4ccccc4c3=O)cc2)ccc1O (stereo not given) (field: TGI) = > 100 µM

response.value for COC(=O)c1c2c(c(C)[n+]([O-])c1C)C(=O)C=C(NCc1ccc(F)c(F)c1)C2=O (field: TGI) = 1.65 µM

response.value for CCN(CC)CCCOC(=O)/C=C/c1c(C)[nH]c(=O)[nH]c1=O (field: TGI) = > 625 µM

response.value for Cc1ccc(OCC2OC(n3cnc4c(N(C)C)nc(Br)nc43)CC2Oc2ccc(C)cc2)cc1 (stereo not given) (field: TGI) = > 100 µM

response.value for CC(=O)[C@@H]1CCC=C2CC[C@]3(C)[C@@H](CC[C@@H]4[C@@]5(C)CCCNC(C)(C)[C@@H]5CC[C@]43C)[C@H]21 (field: TGI) = 3.8 µM

response.value for CC(C)CCC[C@@H](C)[C@H]1CCC2C3CC=C4C[C@@H](Oc5c6ccccc6nc6ccccc56)CCC4C3CCC21 (stereo not given in full) (field: TGI) = > 50 µM

response.value for CN(C(=O)Cc1ccc(Cl)c(Cl)c1)[C@H]1CCCC[C@@H]1[N+]1(C)CCCC1 (field: TGI) = > 100 µM

response.value for O=C1C=C(Br)C(=O)C12CCc1ccccc12 (stereo not given) (field: TGI) = 81.3 µM

response.value for CN1CCCN(C)C1c1cc([N+](=O)[O-])ccc1O (field: TGI) = > 100 µM

response.value for [Se]=P(c1ccccc1)(c1ccccc1)c1ccc(C(c2ccccc2)=P(c2ccccc2)(c2ccccc2)c2ccccc2)cc1 (field: TGI) = > 54.1 µM

# next compound below
response.value for O=c1c(SSc2coc3cc(F)ccc3c2=O)coc2cc(F)ccc12 (field: TGI) = 78.8 µM
